Tested on: SF-268 CNS
Test: NCI-60 one-dose screen, 48 h (100 = growth as untreated, 0 = no growth, -100 = all killed)
Settings: 10 µM unless noted
Compounds without any hit were thinned out: in the full panel of roughly 83,000, 20% have a hit. Calls of active or inactive are those of the source. How the source made its calls: active means growth percent below 10; inactive means the rest.
metric: growth

Here are 8 compounds together with their reported answers.
O=[N+]([O-])c1ccc(O)cc1Br :: 99.6% (inactive)
C/C(Cc1ccc(Cl)cc1)=C(\c1ccc(O)cc1)c1ccc(Cl)cc1 :: 95% (inactive)
CCCC/C=C/[C@@H]1C[C@H]1CCO :: 104% (inactive)
N#Cc1c(-c2ccccc2)cc(-c2ccccc2)n(CCCC(=O)Nc2ccccc2N)c1=O :: 59.5% (inactive)
COc1ccc(CNc2c3ccccc3nc3ccccc23)cc1 :: 63.4% (inactive)
NC(=O)c1cccc(-n2ccc3cc(NC(=O)c4ccc(N5CCOCC5)c(C(F)(F)F)c4)ccc32)n1 :: 66.8% (inactive)
O=C(CN1CCCCC1)Nc1nc(-c2cc3ccccc3oc2=O)cs1 :: 94.1% (inactive)
O=C(Nn1c2c(sc1=NC1CC1)C(=O)c1ccccc1C2=O)c1cc2ccc1CCc1ccc(cc1)CC2 :: 45.2% (inactive)

Param item = COC(=O)[C@]12CCC(C)(C)C[C@H]1[C@H]1/C(=N/OCCc3nn[nH]n3)C[C@@H]3[C@@]4(C)CC[C@H](OC(C)=O)C(C)(C)[C@@H]4CC[C@@]3(C)[C@]1(C)CC2 ; retrieve measured growth.
45.5% (inactive)

Param item = Cc1c(O)cc(-c2cnc(Nc3ccccc3)s2)c(O)c1C ; retrieve measured growth.
105% (inactive)

Param item = COCCn1cc(-c2nc(-c3cc4cccnc4[nH]3)cs2)c2cc(OC)ccc21 ; retrieve measured growth.
44.9% (inactive)

Param item = COC12C=C/C(=C(/C(=O)OCc3ccncn3)C(=O)CCCCCCCCC3(OC)C=C/C(=C(/C(=O)OCc4ccncn4)C(=O)CCCCCCCC1)O3)O2 ; retrieve measured growth.
-3.7% (active)

---

Tested on: A498 renal
Assay: NCI-60 one-dose screen, 48 h
Conditions: 10 µM unless noted
About 83,000 compounds went through this panel and 20% of them were active in at least one assay; those are over-represented in the sample as a whole. The source made the active and inactive calls. How the source made its calls: active means growth percent below 10; inactive means the rest.
# output must be one of active, inactive

COc1ccc(NC2=C(I)C(=O)c3ncccc3C2=O)cc1 :: inactive

Recorded call for Fc1cc2c(cc1Cl)N(c1ncnc3ccc(-c4ccc5n[nH]nc5c4)cc13)CC2 ?
active

Recorded call for COc1cc2cc(NCc3cccc(Cl)c3)nc(C)c2cc1OC ?
active

Recorded call for N#Cc1c(-c2ccccc2)cc(-c2ccc(Nc3nc(Nc4ccc(Cl)cc4)nc(Nc4ccc(Cl)cc4)n3)cc2)nc1N ?
inactive

Recorded call for Nc1n[nH]c2cccc(C#Cc3cccc(NC(=O)c4cc(F)cc(C(F)(F)F)c4)c3)c12 ?
inactive

Recorded call for N#CC1=C(N)Oc2c(ccc3ccccc23)C1c1ccccc1 (stereo unspecified) ?
inactive

---

Test system: NCI-H322M lung
Assay: NCI-60 one-dose screen, 48 h (100 = growth as untreated, 0 = no growth, -100 = all killed)
Conditions: 10 µM unless noted
Protocol: Growth inhibition of the NCI-H322M human Non-Small Cell Lung tumor cell line is measured as a screen for anti-cancer activity. Cells are grown in 96 well plates and exposed to the test compound for 48 hours. Compounds are tested at a single concentration, which is 10^-5 M for most compounds. The reported endpoint is percent growth (GI% or GIPRCNT), where numbers from 0 - 100% represent growth inhibition, and numbers from -100% - 0 represent cell death. […]
Compounds without any hit were thinned out: in the full panel of roughly 83,000, 20% have a hit.
metric: growth (%)
Enter your answer as a number in %; do not include the unit.

Here are 3 molecules together with their reported answers.
NC(=O)CSc1oc(-c2ccccc2)nc1S(=O)(=O)c1ccc(Br)cc1 :: 89.8
N#CC1=C(c2ccccc2)Nc2c(c(-c3ccc(Cl)cc3)nn2-c2ccccc2)C12C(=O)Nc1ccc(Cl)cc12 (centres undefined) :: 91.3
O=C(/C=C/c1cccc(Cl)c1)c1cccc(OCCCOc2cccc(C(=O)/C=C/c3cccc(Cl)c3)c2)c1 :: 106

Turning now to a further molecule:
Param item = O=[N+]([O-])c1ccc(O)cc1Br ; retrieve measured growth.
105
